Assay: thallium flux in non-induced HEK293 cells, confirmation, counter-screen for KCNK9 inhibitor project, cell-based, second counter screen, non-induced KCNK9-HEK293 (AID 492997);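 on inhibition: plate controls were buffer only IC0 wells for no effect and SID17386958 at its maximal inhibitory level for full effect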
Settings: non-induced KCNK9-HEK293, FluxOR thallium flux, at 10 µM; active compounds read high
Out of some 4,900 compounds screened, about 2,000 (41%) were called active. So high a share suggests a set chosen from earlier hits. These entries were drawn from the full list.
TEST_READOUT: inhibition

CCOC(=O)C1SC2(C(F)(F)C(F)F)CC1(O)c1c(c(OC)c3occc3c1OC)O2 (centres undefined) = inactive
CCCCCCCCCCCCn1ccc(=N)cc1 = 29.5% (active)
CCCCCCN=C(CC)c1c(O)n(CCCC)c(=O)[nH]c1=O = 32% (active)
CC(C)(C)c1ccc(OC(=O)N2CCCCC2)cc1 = inactive

Just for reference, PubChem BioAssay AID492997 is where these values come from.
